// provenance: patent US6387881B1

- SYSTEM UNDER TEST: bovine thrombin in citrated normal human plasma (Bos taurus, UniProt P00735)
- Construct: freshly prepared bovine thrombin (5 NIHu/ml saline)
- ASSAY OVERVIEW: Plasma thrombin time (TT), in vitro
- Type: biochemical
- MEASUREMENT SETUP: inhibitor concentration that caused a doubling of the thrombin time
READOUT NAME: TT (µM)
Give just the number in µM; leave the unit off.

# example entries with known answers
# COMPOUND, TEST VALUE
records = [
    ("N=C(N)NCCCC(NC(=O)C1CCCN1C(=O)C(N)Cc1ccc2ccccc2c1)C(=O)CCC(=O)N1CCCCC1 (mixture of isomers) [Compound 14, D,L-β-Nal-Pro-Arg--k--Gly-Pip]", 90.0),
    ("COCCCC(NC(=O)[C@@H]1CCCN1C(=O)[C@H](N)C(c1ccccc1)c1ccccc1)P(=O)(Oc1ccccc1)Oc1ccccc1 (stereo partly drawn) [Compound 32, H-D-Dpa-Pro-Mpg^P(OPh)2]", 9.1),
]

Here's the next entry for you.
Note to self: TT of N=C(N)Nc1ccc(CC(NC(=O)[C@@H]2CCCN2C(=O)[C@H](N)Cc2ccccc2)C(=O)CCC(=O)N2CCCCC2)cc1 (stereo partly drawn) [D-Phe-Pro-Gpa-k--Gly-Pip, D-Phe-Pro-Gpa--k--Gly-Pip] with bovine thrombin in citrated normal human plasma (Bos taurus, UniProt P00735) was 4.9
